target: fRSK1, fluorescein-labelled RSK1 PBM peptide; test: fluorescence polarisation; direct: N-terminally fluorescein-labelled PBM peptide (tracer) with increasing amounts of MBP-PDZ; 384-well plates; triplicate; direct binding model (ProFit)
test readout: pKd
The quantity pKd is defined as the negative base-10 logarithm of the molar concentration.

Item: ARHGEF12-1, PDZ domain of ARHGEF12 (from UniProt Q9NZN5 1-1544) (domain or fragment) Test system: fRSK1, fluorescein-labelled RSK1 PBM peptide Read-out: pKd Value: ?
5.40
